The measurements presented in this section are drawn from PubChem BioAssay (NCI).

# reported TGI; entries follow
test system: SK-MEL-28 melanoma; assay: NCI tumour cell line growth inhibition, 48 h

OC12c3ccccc3C1CCCCCC21OCCCO1 (stereo not drawn)
> 100 µM
COc1cc(S(=O)(=O)Nc2ccc(-c3csc(N4C(=O)C(Cl)C4c4cccs4)n3)cc2)ccc1Cl (stereo not drawn)
> 100 µM

Okay, next one:
For C/C(O[Si](C(C)C)(C(C)C)C(C)C)=C(\C)C(=O)N(C)c1ccccc1Cl on SK-MEL-28 melanoma, measured TGI was > 100 µM

====

test system: NCI-H226 lung; assay: NCI tumour cell line growth inhibition, 48 h
observable: TGI (µM)
Give the value, in units of µM, as a plain number.

COc1cc(C2c3cc4c(cc3[C@@H](N(C)c3ccc(N(C)C)cc3)C3COC(=O)C23)OCO4)cc(OC)c1O (some centres undefined)
0.625

Okay, next one:
Lab note: measured TGI of Cc1cn2c(/C=N/N=C(N)N)c(-c3ccncc3)nc2s1 was 40.5

====

tested on: HT29 colon; experiment: NCI tumour cell line growth inhibition, 48 h
observable: TGI

Here are 5 compounds together with their reported answers.
COc1ccc(CCN2C(=O)CC34C=CC(CC3C2=O)O4)cc1OC (centres undefined)
> 100 µM
O=C(NC(=O)c1cn(CCN2CCN(C(=O)NCCCCCCNC(=O)N3CCN(CCn4cc(C(=O)NC(=O)OCc5ccccc5)c(=O)[nH]c4=O)CC3)CC2)c(=O)[nH]c1=O)OCc1ccccc1
> 100 µM
COc1ccc2c(c1)[n+](=O)c(C(=O)CC(=O)C(=O)Nc1cccc(C)c1C)c(C)n2[O-]
> 100 µM
COc1ccc2c3c1OC1C(OC)(OC)CC4(C=C2)CN(C)CCC314 (centres undefined)
> 100 µM
COc1cc(OC)c(OC)cc1/C=C/c1cc[n+](C)c2ccccc12
> 100 µM

Lab note: measured TGI of CC12CCC(CC1(Cl)Cl)C2 (centres undefined) was > 100 µM

Lab note: measured TGI of C#CC(O)/C=C/C(O)CCCC(O)CC#CC(O)C#CCCCCC(O)/C=C/CCCC(O)/C=C/CCCCCCCCCCCCCC(O)C(O)C#CC(=O)O (centres undefined) was > 25 µM

Lab note: measured TGI of Cn1cc(C2=C(c3ccccc3C(F)(F)F)C(=O)NC2=O)c2ccccc21 was > 25 µM

Lab note: measured TGI of C[C@H]1O[C@@H](C(C)(C)C)OC(=O)[C@@H]1C(OC(=O)c1ccccc1)c1cccc2ccccc12 (some centres undefined) was > 100 µM

====

tested on: HCC-2998 colon; experiment: NCI tumour cell line growth inhibition, 48 h
observable: TGI (µM)
Give the value, in units of µM, as a plain number.

Oc1c(O)c(Cl)c(Cl)c(Cl)c1Cl
30.7

Lab note: measured TGI of CCC(=O)Nc1ccc(NCC(=O)Nc2ccc(OC)cc2)cc1 was 35.5

====

tested on: NCI/ADR-RES ovarian; experiment: NCI tumour cell line growth inhibition, 48 h
observable: TGI

Here are 2 compounds together with their reported answers.
COc1cc(S(=O)(=O)Nc2ccc(-c3csc(N4C(=O)C(Cl)C4c4cccs4)n3)cc2)ccc1Cl (stereo not drawn)
> 100 µM
COc1ccc2c(c1)O/C(=C\c1cccc(OCC(=O)Nc3nc(C)c(C)s3)c1)C2=O
> 100 µM

Lab note: measured TGI of O=P1(Cc2ccccc2)c2ccccc2-c2ccccc21 was > 100 µM
